# Measurement target: hY5R (Homo sapiens)
# Construct: expressed in transfected cells; host or cells: HEC-1B (human endometrial cancer)
# Sequence (Q15761 whole entry): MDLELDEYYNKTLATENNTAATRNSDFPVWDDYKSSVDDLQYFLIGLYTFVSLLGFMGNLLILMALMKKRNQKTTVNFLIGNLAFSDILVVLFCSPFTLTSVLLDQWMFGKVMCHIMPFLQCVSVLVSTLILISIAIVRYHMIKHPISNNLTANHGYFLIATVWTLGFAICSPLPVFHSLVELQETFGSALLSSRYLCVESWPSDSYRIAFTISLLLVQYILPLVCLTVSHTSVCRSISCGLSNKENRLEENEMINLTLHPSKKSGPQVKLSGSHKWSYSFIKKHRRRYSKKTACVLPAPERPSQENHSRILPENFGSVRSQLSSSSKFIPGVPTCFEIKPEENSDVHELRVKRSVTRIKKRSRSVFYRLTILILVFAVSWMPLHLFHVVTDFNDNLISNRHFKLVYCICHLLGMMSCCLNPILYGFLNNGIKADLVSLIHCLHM
# Protocol details: Y5R radioligand competition binding, whole HEC-1B-hY5R cells, [3H]propionyl-pNPY
# Cond: [3H]propionyl-pNPY c = 5 nM, read-out: pKi ± SEM hY5R (converted)
Each record here notes measured Ki.

Consider the following illustrative entries.
Record summary for CC(C)C[C@H](NC(=O)[C@@H]1CCCNC(N)=NC(=O)NCCCCNC(=O)[C@H](NC(=O)CCCNC(=O)CCC#Cc2ccc3c(c2)C(C)(C)C2=C4C=C5C6=[N+](CCC5OC4CCN23)c2ccc(S(=O)(=O)[O-])cc2C6(C)C)CC(=O)N[C@@H](CCCNC(=N)N)C(=O)N[C@@H](Cc2ccc(O)cc2)C(=O)N1)C(=O)N[C@@H](CCCNC(=N)N)C(=O)N[C@@H](Cc1ccc(O)cc1)C(N)=O (stereo partly shown) : reported Ki = 479 nM

Consider Cc1cc(/C=C/C=C/c2ccc(N(C)C)cc2)cc(C)[n+]1CCCn1cc(CCCCNC(=O)N=C(N)NCCC[C@@H]2NC(=O)CCC(=O)NCCCCNC(=O)N=C(N)NCCC[C@@H](C(=O)N[C@@H](CC(C)C)C(=O)N[C@@H](CCCNC(=N)N)C(=O)N[C@@H](Cc3ccc(O)cc3)C(N)=O)NC(=O)[C@H](Cc3ccc(O)cc3)NC2=O)nn1 . Its measured Ki is > 1000 nM

CC(C)C[C@H](NC(=O)[C@@H]1CCCNC(N)=NC(=O)NCCCCNC(=O)[C@H](NC(=O)CCCNC(=O)CCCCCN2/C(=C/C=C/C=C/C3=[N+](CCCCS(=O)(=O)[O-])c4ccccc4C3(C)C)C(C)(C)c3cc(S(=O)(=O)O)ccc32)CC(=O)N[C@@H](CCCNC(=N)N)C(=O)N[C@@H](Cc2ccc(O)cc2)C(=O)N1)C(=O)N[C@@H](CCCNC(=N)N)C(=O)N[C@@H](Cc1ccc(O)cc1)C(N)=O has a reported Ki of > 1000 nM

Now, please, on to the next compound.
Kindly note the recorded Ki for C#CCCCCNC(=O)N=C(N)NCCC[C@@H]1NC(=O)CCC(=O)NCCCCNC(=O)N=C(N)NCCC[C@@H](C(=O)N[C@@H](CC(C)C)C(=O)N[C@@H](CCCNC(=N)N)C(=O)N[C@@H](Cc2ccc(O)cc2)C(N)=O)NC(=O)[C@H](Cc2ccc(O)cc2)NC1=O , which is > 3160 nM

* * *

# Measurement target: hY1R (Homo sapiens)
# Construct: host or cells: SK-N-MC neuroblastoma cells
# Sequence (P25929 whole entry): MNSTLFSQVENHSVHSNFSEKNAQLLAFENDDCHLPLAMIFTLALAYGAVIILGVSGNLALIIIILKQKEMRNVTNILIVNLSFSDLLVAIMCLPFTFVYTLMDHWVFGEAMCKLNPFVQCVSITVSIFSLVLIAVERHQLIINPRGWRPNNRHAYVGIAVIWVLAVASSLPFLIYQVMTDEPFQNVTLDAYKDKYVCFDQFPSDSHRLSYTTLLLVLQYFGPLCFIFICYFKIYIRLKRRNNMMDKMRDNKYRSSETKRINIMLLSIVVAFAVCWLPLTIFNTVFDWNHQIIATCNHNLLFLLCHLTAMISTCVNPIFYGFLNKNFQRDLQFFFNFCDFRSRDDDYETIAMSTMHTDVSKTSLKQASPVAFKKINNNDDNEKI
# Protocol details: Y1R radioligand competition binding, whole SK-N-MC cells, [3H]UR-MK299
# Cond: SK-N-MC neuroblastoma cells, [3H]UR-MK299 c = […]; read-out: pKi ± SEM hY1R (converted)
Measured quantity: Ki

Per the record, CC(C)C[C@H](NC(=O)[C@@H]1CCCNC(N)=NC(=O)NCCCCNC(=O)[C@H](NC(=O)CCCNC(=O)CCCCCN2/C(=C/C=C/C=C/C3=[N+](CCCCS(=O)(=O)[O-])c4ccccc4C3(C)C)C(C)(C)c3cc(S(=O)(=O)O)ccc32)CC(=O)N[C@@H](CCCNC(=N)N)C(=O)N[C@@H](Cc2ccc(O)cc2)C(=O)N1)C(=O)N[C@@H](CCCNC(=N)N)C(=O)N[C@@H](Cc1ccc(O)cc1)C(N)=O [Compound 17] has Ki of > 1 µM

The value of Ki measured for the compound CC(C)C[C@H](NC(=O)[C@@H]1CCCNC(N)=NC(=O)NCCCCNC(=O)[C@H](NC(=O)CCCNC(=O)CCC#Cc2ccc3c(c2)C(C)(C)C2=C4C=C5C6=[N+](CCC5OC4CCN23)c2ccc(S(=O)(=O)[O-])cc2C6(C)C)CC(=O)N[C@@H](CCCNC(=N)N)C(=O)N[C@@H](Cc2ccc(O)cc2)C(=O)N1)C(=O)N[C@@H](CCCNC(=N)N)C(=O)N[C@@H](Cc1ccc(O)cc1)C(N)=O (some centres unmarked) [Compound 16] turned out to be 0.123 µM

Ki reading for C#CCCCCNC(=O)N=C(N)NCCC[C@@H]1NC(=O)CCC(=O)NCCCCNC(=O)N=C(N)NCCC[C@@H](C(=O)N[C@@H](CC(C)C)C(=O)N[C@@H](CCCNC(=N)N)C(=O)N[C@@H](Cc2ccc(O)cc2)C(N)=O)NC(=O)[C@H](Cc2ccc(O)cc2)NC1=O [Compound 11] : > 10 µM

# compound Cc1cc(/C=C/c2cc3c4c(c2)CCCN4CCC3)cc(C)[n+]1CCCC(=O)N[C@@H]1CC(=O)N[C@@H](CCCNC(=N)N)C(=O)N[C@@H](Cc2ccc(O)cc2)C(=O)N[C@H](C(=O)N[C@@H](CC(C)C)C(=O)N[C@@H](CCCNC(=N)N)C(=O)N[C@@H](Cc2ccc(O)cc2)C(N)=O)CCCNC(N)=NC(=O)NCCCCNC1=O [Compound 18] ; its Ki = > 1 µM

Next:
Value of Ki reported for the compound Cc1cc(/C=C/C=C/c2ccc(N(C)C)cc2)cc(C)[n+]1CCCn1cc(CCCCNC(=O)N=C(N)NCCC[C@@H]2NC(=O)CCC(=O)NCCCCNC(=O)N=C(N)NCCC[C@@H](C(=O)N[C@@H](CC(C)C)C(=O)N[C@@H](CCCNC(=N)N)C(=O)N[C@@H](Cc3ccc(O)cc3)C(N)=O)NC(=O)[C@H](Cc3ccc(O)cc3)NC2=O)nn1 [Compound 19] is > 1 µM

* * *

# Measurement target: Y4R (Homo sapiens, UniProt P50391)
# Sequence (P50391 whole entry): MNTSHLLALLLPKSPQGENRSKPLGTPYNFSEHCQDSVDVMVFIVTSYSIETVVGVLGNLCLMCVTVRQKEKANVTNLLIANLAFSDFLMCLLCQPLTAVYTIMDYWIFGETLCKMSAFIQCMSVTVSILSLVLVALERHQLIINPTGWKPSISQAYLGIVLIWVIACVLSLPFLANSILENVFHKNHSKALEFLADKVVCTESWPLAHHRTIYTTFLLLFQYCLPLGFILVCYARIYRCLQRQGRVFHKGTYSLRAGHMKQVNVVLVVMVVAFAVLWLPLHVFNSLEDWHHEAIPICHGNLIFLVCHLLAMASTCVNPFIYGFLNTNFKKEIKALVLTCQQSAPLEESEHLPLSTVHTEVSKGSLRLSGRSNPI
# Protocol details: Y4R miniGsi recruitment assay (HEK293T-NlucN-mGsi/Y4R-NlucC cells); also: relative to 1 µM hPP (100%)
# Type: cell-based
# Parameters: expressed in transfected cells; host or cells: HEK293T
# Cond: read-out: miniGsi recruitment Emax ± SEM
Measured quantity: Emax (%)
Write the answer as a number in %, unit excluded.

Solved entries (count: 2):
Y4R (Homo sapiens, UniProt P50391) assay, compound Cc1cc(/C=C/c2cc3c4c(c2)CCCN4CCC3)cc(C)[n+]1CCCC(=O)N[C@@H]1CC(=O)N[C@@H](CCCNC(=N)N)C(=O)N[C@@H](Cc2ccc(O)cc2)C(=O)N[C@H](C(=O)N[C@@H](CC(C)C)C(=O)N[C@@H](CCCNC(=N)N)C(=O)N[C@@H](Cc2ccc(O)cc2)C(N)=O)CCCNC(N)=NC(=O)NCCCCNC1=O [Compound 18] , recorded Emax = 44

The reported Y4R (Homo sapiens, UniProt P50391) Emax of Cc1cc(/C=C/C=C/c2ccc(N(C)C)cc2)cc(C)[n+]1CCCn1cc(CCCCNC(=O)N=C(N)NCCC[C@@H]2NC(=O)CCC(=O)NCCCCNC(=O)N=C(N)NCCC[C@@H](C(=O)N[C@@H](CC(C)C)C(=O)N[C@@H](CCCNC(=N)N)C(=O)N[C@@H](Cc3ccc(O)cc3)C(N)=O)NC(=O)[C@H](Cc3ccc(O)cc3)NC2=O)nn1 [Compound 19] is 43

Pending compound:
Measured Emax for this entry C#CCCCCNC(=O)N=C(N)NCCC[C@@H]1NC(=O)CCC(=O)NCCCCNC(=O)N=C(N)NCCC[C@@H](C(=O)N[C@@H](CC(C)C)C(=O)N[C@@H](CCCNC(=N)N)C(=O)N[C@@H](Cc2ccc(O)cc2)C(N)=O)NC(=O)[C@H](Cc2ccc(O)cc2)NC1=O [Compound 11] on Y4R (Homo sapiens, UniProt P50391): 62

* * *

# Measurement target: Y4R (Homo sapiens, UniProt P50391)
# Protocol details: Y4R miniGsi recruitment assay (HEK293T-NlucN-mGsi/Y4R-NlucC cells); also: relative to 1 µM hPP (100%)
# Assay type: cell-based
# Parameters: expressed in transfected cells; host or cells: HEK293T
# Cond: read-out: miniGsi recruitment Emax ± SEM
Measured quantity: Emax (%)
State just the number; it will be interpreted in %.

The examples below pair each entry with its known result.
// CC(C)C[C@H](NC(=O)[C@@H]1CCCNC(N)=NC(=O)NCCCCNC(=O)CCC(=O)N[C@@H](CCCNC(=N)N)C(=O)N[C@@H](Cc2c[nH]c3ccccc23)C(=O)N1)C(=O)N[C@@H](CCCNC(=N)N)C(=O)N[C@@H](Cc1ccc(O)cc1)C(N)=O : Emax value = 61

Given item CC(C)C[C@H](NC(=O)[C@@H]1CCCNC(N)=NC(=O)NCCCCNC(=O)[C@H](NC(=O)CCCNC(=O)CCC#Cc2ccc3c(c2)C(C)(C)C2=C4C=C5C6=[N+](CCC5OC4CCN23)c2ccc(S(=O)(=O)[O-])cc2C6(C)C)CC(=O)N[C@@H](CCCNC(=N)N)C(=O)N[C@@H](Cc2ccc(O)cc2)C(=O)N1)C(=O)N[C@@H](CCCNC(=N)N)C(=O)N[C@@H](Cc1ccc(O)cc1)C(N)=O (stereo partly drawn) , the value recorded as its Emax is 72

Next up:
Sure, the documented Emax for CC(C)C[C@H](NC(=O)[C@@H]1CCCNC(N)=NC(=O)NCCCCNC(=O)[C@H](NC(=O)CCCNC(=O)CCCCCN2/C(=C/C=C/C=C/C3=[N+](CCCCS(=O)(=O)[O-])c4ccccc4C3(C)C)C(C)(C)c3cc(S(=O)(=O)O)ccc32)CC(=O)N[C@@H](CCCNC(=N)N)C(=O)N[C@@H](Cc2ccc(O)cc2)C(=O)N1)C(=O)N[C@@H](CCCNC(=N)N)C(=O)N[C@@H](Cc1ccc(O)cc1)C(N)=O is 70

Data provenance is paper PMC11019746.
